B1: glmS ribozyme (parent)
chain: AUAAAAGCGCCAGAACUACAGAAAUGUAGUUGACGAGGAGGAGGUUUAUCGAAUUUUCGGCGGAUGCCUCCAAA

variants of: B1; test: self-cleavage kobs at 640 uM GlcN6P; higher = faster cleavage; RNA array; conditions: with glucosamine-6-phosphate
Variants at the floor of the assay were thinned out.
Measured attribute: self-cleavage kobs at 640 uM GlcN6P (s⁻¹)
Answers are plain numbers, in s⁻¹.

Sample answers from the record:
| Mutant code | Unit tag | self-cleavage kobs at 640 uM GlcN6P |
| --- | --- | --- |
| G13U U56G C70G | s⁻¹ | 6.47e-05 |
| C16A C70A | s⁻¹ | 3.14e-05 |
| A33C C50G C71U | s⁻¹ | 0.000204 |
| A39G U56C | s⁻¹ | 0.00106 |
| C11A U30G U54G | s⁻¹ | 4.96e-05 |

Please give self-cleavage kobs at 640 uM GlcN6P for each item listed below.
1. G40C U55A
2. C34U C70A
3. A53U C68U
4. G40C U46G
5. U46A A53G
6. C11U U65A C71U

*A*
0.000125
0.00139
0.000788
0.00021
0.000508
2.73e-05

Hi! Can you tell me self-cleavage kobs at 640 uM GlcN6P for each of these variants?
1. A14G C58G C71A
2. U47C A64G
3. A15C U31A
4. C11G C67A C71G

*A*
0.000191
0.00115
0.0015
0.000132

Need self-cleavage kobs at 640 uM GlcN6P for each of these variants.
1. A14G A64G
2. G41U U56A
3. U57G
4. G7U U31C C50G
5. A15G U65G
6. C16G A52G
7. C11U C71G

*A*
1: 0.0212; 2: 0.000234; 3: 2.22e-05; 4: 0.000324; 5: 0.000664; 6: 7.43e-05; 7: 7.07e-05

Hi! Can you tell me self-cleavage kobs at 640 uM GlcN6P for each of these variants?
1. C34U U49A U55G C61U C68G
2. A14G G41A
3. U47G U65G
4. A52U U55G
5. C11U U46G C50G

*A*
0.000585
0.00125
0.000451
7.12e-05
6.4e-05

From: the supplement of paper PMC7125110
